Parameter pIC50: see the listing below.
# studySystem: Glutamate NMDA receptor
# protocolSummary: Tested in vitro for antagonistic activity at N-methyl-D-aspartate glutamate receptor by measuring displacement of [3H]TCP from crude synaptic membrane preparations obtained from rat brain
# Assay type: functional
The quantity pIC50 is defined as the negative base-10 logarithm of the molar concentration.

Take a look at these entries with their results.
{"columns": ["compound", "studySystem", "pIC50"],
 "data": [
  ["O=c1c2c(c1=O)N(CCP(=O)(O)O)CCCN2", "Glutamate NMDA receptor", 5.12],
  ["O=C1C2=NCCCN(Cc3nn[nH]n3)C2=C1O", "Glutamate NMDA receptor", 4.74],
  ["O=C1C(O)=C2/C1=N\\CCCCN2CCP(=O)(O)O", "Glutamate NMDA receptor", 4.44],
  ["O=C1C2=NCCN(CCP(=O)(O)O)C2=C1O", "Glutamate NMDA receptor", 4.54]
]}

// query Name the recorded pIC50 for O=C(O)[C@@H]1C[C@H](CP(=O)(O)O)CCN1 (single isomer, unassigned) .
// result 4.66

// query Would you mind telling me what pIC50 value was observed for O=C1C2=NCC(O)CN(CCP(=O)(O)O)C2=C1O (centres undefined) ?
// result 5.00

---

ED50 values, listed per item
# Tested on: Mus musculus
# protocolSummary: Effective dose against NMDA-induced lethality in mice on ip administration
# Format: functional
Answer in mg/kg, number only, no unit symbol.

Some solved entries appear below for comparison.
{"columns": ["compound", "valueUnit", "ED50"],
 "data": [
  ["CC1(C)CN=C2C(=O)C(O)=C2N(CCP(=O)(O)O)C1", "mg/kg", 22],
  ["O=c1c2c(c1=O)N(CCP(=O)(O)O)CCCN2 [PERZINFOTEL]", "mg/kg", 2.1],
  ["O=C1C2=NCC(O)CN(CCP(=O)(O)O)C2=C1O (stereo not drawn)", "mg/kg", 1.8],
  ["O=C1C2=NCCN(CCP(=O)(O)O)C2=C1O", "mg/kg", 6.1],
  ["O=C(O)[C@@H]1C[C@H](CP(=O)(O)O)CCN1 (single isomer, unassigned) [SELFOTEL]", "mg/kg", 1.5]
]}

Now for a further compound.
// query Tell me the measured ED50 of Nc1c(NCCP(=O)(O)O)c(=O)c1=O , please.
// result 29

---

# studySystem: Glutamate NMDA receptor
# protocolSummary: Displacement of [3H]CPP from rat brain synaptic membrane N-methyl-D-aspartate glutamate receptor
IC50 strictly less than 40 nM = YES. Otherwise NO.

{"columns": ["molecule", "cat"],
 "data": [
  ["O=C1C2=NCCCN(Cc3nn[nH]n3)C2=C1O", "YES"],
  ["O=C1C2=NCCCN(C/C=C/P(=O)(O)O)C2=C1O", "NO"],
  ["O=C1C2=NCCCN(CCCP(=O)(O)O)C2=C1O", "NO"]
]}

// query Quick check: does O=C1C(O)=C2/C1=N\CCCCN2CCP(=O)(O)O have IC50 under 40 nM?
// result NO

// query I'd appreciate it if you could check whether O=C1C2=NCC(O)CN(CCP(=O)(O)O)C2=C1O (stereo not given) has IC50 smaller than 40 nM.
// result YES

// query Could you please tell me whether IC50 recorded for O=C1C2=NCCN(CCP(=O)(O)O)C2=C1O is less than 40 nM?
// result NO

// query Say whether its IC50 is strictly beneath 40 nM. Entry: O=C([O-])CCN1CCCN=C2C(=O)C(O)=C21.[Na+]
// result NO

// query Confirm or reject: IC50 of O=c1c2c(c1=O)N(CCP(=O)(O)O)CCCN2 lies strictly below 40 nM
// result YES

// query Confirm or reject: IC50 of O=C([O-])CN1CCCN=C2C(=O)C(O)=C21.[Na+] lies strictly below 40 nM
// result NO

// query Given CC1(C)CN=C2C(=O)C(O)=C2N(CCP(=O)(O)O)C1 , is recorded IC50 strictly lower than 40 nM?
// result NO

---

Entries and their measured pIC50 follow.
# studySystem: Glutamate NMDA receptor
# protocolSummary: Tested in vitro for antagonistic activity at N-methyl-D-aspartate glutamate receptor by measuring displacement of [3H]TCP from crude synaptic membrane preparations obtained from rat brain
# Assay type: functional
pIC50: −log10 of the molar value.

{"columns": ["smilesData", "observedMeasurement"],
 "data": [
  ["O=C1C2=NCCCN(CCc3nnn[nH]3)C2=C1O", "< 4.00"],
  ["O=C1C2=NCCCN(CCCP(=O)(O)O)C2=C1O", "< 4.00"]
]}

Proceeding to the next molecule to report its pIC50.
// query Entry O=C1C2=NCCCN(C/C=C/P(=O)(O)O)C2=C1O : reported pIC50 = ?
// result < 4.00

---

# Tested on: Mus musculus
# protocolSummary: Effective dose against NMDA-induced lethality in mice on ip administration
# Assay type: functional
Measured ED50 values are reported for all entries that follow.

Examples with their reported ED50 follow.
{"columns": ["smilesData", "ED50"],
 "data": [
  ["O=C([O-])CCN1CCCN=C2C(=O)C(O)=C21.[Na+]", "> 20 mg/kg"],
  ["O=C1C2=NCCCN(CCCP(=O)(O)O)C2=C1O", "> 10 mg/kg"],
  ["O=C1C2=NCCCN(CCc3nnn[nH]3)C2=C1O", "> 5 mg/kg"],
  ["O=C([O-])CN1CCCN=C2C(=O)C(O)=C21.[Na+]", "> 20 mg/kg"],
  ["O=C1C2=NCCCN(Cc3nn[nH]n3)C2=C1O", "> 10 mg/kg"],
  ["O=C1C(O)=C2/C1=N\\CCCCN2CCP(=O)(O)O", "> 3 mg/kg"]
]}

Turning to the following compound.
// query Under Mus musculus: ED50 value of O=C1C2=NCCCN(C/C=C/P(=O)(O)O)C2=C1O ?
// result > 5 mg/kg

Ref: ChEMBL document CHEMBL1131113
